# target.desc: IgG receptor FcRn large subunit p51 (Homo sapiens)
# Sequence (P55899 whole entry): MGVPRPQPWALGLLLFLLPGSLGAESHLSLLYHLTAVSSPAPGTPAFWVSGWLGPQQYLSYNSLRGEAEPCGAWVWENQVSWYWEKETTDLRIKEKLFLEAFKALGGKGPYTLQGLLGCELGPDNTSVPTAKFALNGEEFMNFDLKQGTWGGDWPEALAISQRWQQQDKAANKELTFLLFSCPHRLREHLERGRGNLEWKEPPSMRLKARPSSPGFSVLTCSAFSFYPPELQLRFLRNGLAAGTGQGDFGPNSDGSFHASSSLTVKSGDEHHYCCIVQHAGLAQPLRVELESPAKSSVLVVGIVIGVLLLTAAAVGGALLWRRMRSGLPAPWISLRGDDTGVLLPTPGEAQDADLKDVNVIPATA
# assay.procedure: Binding affinity to human FcRn at pH 6 by surface plasmon resonance assay
observable: pKd
Give only the number. pKd is defined as minus log10 of concentration in molar units.

Sample records with pKd:
>>> reported_value("Cc1ccccc1C[C@H](NC(=O)[C@H](Cc1cnc[nH]1)NC(=O)CNC(=O)[C@@H](NC(=O)[C@@H](NC(=O)[C@H](Cc1ccccc1)NC(=O)[C@H](CCCNC(=N)N)NC(=O)[C@@H](N)CCC(N)=O)C(C)(C)S)[C@@H](C)O)C(=O)NCC(=O)NCC(=O)N[C@@H](CC(C)C)C(=O)N[C@@H](Cc1ccc(O)cc1)C(=O)N1CCC[C@H]1C(=O)N[C@@H](CS)C(=O)N[C@@H](CC(N)=O)C(=O)NCC(=O)N1CCC[C@H]1C(=O)O")
6.70
>>> reported_value("Cc1cccc(C[C@H](NC(=O)[C@H](Cc2cnc[nH]2)NC(=O)CNC(=O)[C@@H](NC(=O)[C@@H](NC(=O)[C@H](Cc2ccccc2)NC(=O)[C@H](CCCN=C(N)N)NC(=O)[C@@H](N)CCC(N)=O)C(C)(C)S)[C@@H](C)O)C(=O)NCC(=O)NCC(=O)N[C@@H](CC(C)C)C(=O)N[C@@H](Cc2ccc(O)cc2)C(=O)N2CCC[C@H]2C(=O)N[C@@H](CS)C(=O)N[C@@H](CC(N)=O)C(=O)NCC(=O)N2CCC[C@H]2C(=O)O)c1")
6.17

Field: next compound
Ask: Returns the measured pKd for the input compound. Input: CC(C)C[C@H](NC(=O)CNC(=O)CNC(=O)[C@H](Cc1ccc([N+](=O)[O-])cc1)NC(=O)[C@H](Cc1cnc[nH]1)NC(=O)CNC(=O)[C@@H](NC(=O)[C@@H](NC(=O)[C@H](Cc1ccccc1)NC(=O)[C@H](CCCN=C(N)N)NC(=O)[C@@H](N)CCC(N)=O)C(C)(C)S)[C@@H](C)O)C(=O)N[C@@H](Cc1ccc(O)cc1)C(=O)N1CCC[C@H]1C(=O)N[C@@H](CS)C(=O)N[C@@H](CC(N)=O)C(=O)NCC(=O)N1CCC[C@H]1C(=O)O
Result: 4.08
